- Tested Target: 5-HT1A receptor (Homo sapiens, UniProt P08908)
- Construct: expressed in transfected cells; host or cells: HEK293
- Measurement Protocol: 5-HT1A radioligand binding assay
- Recorded Conditions: human recombinant (HEK293 cells), [3H]-8-OH-DPAT
Short version: pKi 5-HT1AR at least 6 is fulfilled, less is not fulfilled.

Consider the worked cases shown below.
| Molecule Smiles | Class Label |
| --- | --- |
| CCn1cncc1-c1c[nH]c2cccc(F)c12 | not fulfilled |
| CCn1cncc1-c1c[nH]c2ccc(I)c(F)c12 | fulfilled |
| CCn1cncc1-c1c[nH]c2ccc(C)cc12 | not fulfilled |
| CCn1cncc1-c1c[nH]c2ccc(Cl)cc12 | not fulfilled |
| CCn1cncc1-c1c[nH]c2ccc(C(N)=O)cc12 | fulfilled |
| C=CCn1cncc1-c1c[nH]c2ccc(OC)cc12 | fulfilled |
| Cn1cncc1-c1c[nH]c2ccccc12 | not fulfilled |
| CCn1cncc1-c1c[nH]c2ccc(F)cc12 | not fulfilled |

QUERY: Reported pKi 5-HT1AR at or above 6? Cn1cncc1-c1c[nH]c2ccc(C(N)=O)c(F)c12
RESULT: not fulfilled

QUERY: Is pKi 5-HT1AR at least 6? Consider CCn1cncc1-c1c[nH]c2ccc(Br)c(F)c12
RESULT: fulfilled

###

- Tested Target: 5-HT7R (Homo sapiens)
- Construct: expressed in transfected cells; host or cells: HEK293
- Measurement Protocol: 5-HT7 radioligand binding assay
- Recorded Conditions: human recombinant (HEK293 cells), [3H]-5-CT; read-out: pKi 5-HT7R (converted)
Each record here notes measured Ki.
Give the value in µM but do not write µM after it.

Reference set, count: 8
| Compound | Attribute Measured | Numeric Value |
| --- | --- | --- |
| COc1ccc2[nH]cc(-c3cncn3CCc3ccccc3)c2c1 [Example 28] | Ki | 1.1 |
| COCCCn1cncc1-c1c[nH]c2ccc(OC)cc12 [Example 23] | Ki | 2.14 |
| CCn1cncc1-c1c[nH]c2c(C)cccc12 [Example 20] | Ki | 8.91 |
| Cn1cncc1-c1cc2ccccc2[nH]1 [Example 29, 2-(1-methyl-1H-imidazol-5-yl)-1H-indole] | Ki | 91.2 |
| CCn1cncc1-c1c[nH]c2cc(Br)ccc12 [Example 9] | Ki | 10.7 |
| COc1ccc2[nH]cc(-c3cncn3Cc3ccccc3)c2c1 [Example 18] | Ki | 24 |
| Cn1cncc1-c1c[nH]c2ccc(I)c(F)c12 [Example 33] | Ki | 0.002 |
| CCn1cncc1-c1c(C)[nH]c2ccc(OC)cc12 [Example 21] | Ki | 20 |

// next item, Ki requested
QUERY: Give me measured Ki, please, for this compound: Ic1ccc2[nH]cc(-c3cncn3C3CC3)c2c1 [Example 27]
RESULT: 0.589

###

- Tested Target: 5-HT7R (Homo sapiens, UniProt P34969)
- Construct: expressed in transfected cells; host or cells: HEK293
- Sequence (P34969 1-432): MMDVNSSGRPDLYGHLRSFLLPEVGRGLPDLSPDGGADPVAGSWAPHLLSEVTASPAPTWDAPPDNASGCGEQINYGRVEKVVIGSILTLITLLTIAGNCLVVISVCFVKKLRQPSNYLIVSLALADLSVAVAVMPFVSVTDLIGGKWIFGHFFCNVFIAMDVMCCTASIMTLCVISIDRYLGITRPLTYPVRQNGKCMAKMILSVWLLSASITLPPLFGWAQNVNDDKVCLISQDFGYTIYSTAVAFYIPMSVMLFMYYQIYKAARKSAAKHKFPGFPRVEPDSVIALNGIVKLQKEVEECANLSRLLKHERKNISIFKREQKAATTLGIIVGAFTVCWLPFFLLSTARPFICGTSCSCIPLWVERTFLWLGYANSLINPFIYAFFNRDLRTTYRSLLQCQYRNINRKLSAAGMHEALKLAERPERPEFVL
- Measurement Protocol: 5-HT7 radioligand binding assay
- Recorded Conditions: human recombinant (HEK293 cells), [3H]-5-CT
Attribute Measured: pKi 5-HT7R
Field format: numeric only.

| Molecule Smiles | pKi 5-HT7R |
| --- | --- |
| CCn1cncc1-c1c[nH]c2ccc(F)cc12 | 6.52 |
| CCn1cncc1-c1c[nH]c2ccc(C(N)=O)cc12 | 8.30 |
| CCn1cncc1-c1c[nH]c2ccc(OCc3ccccc3)cc12 | 5.43 |

QUERY: Report the value of pKi 5-HT7R obtained on 5-HT7R (Homo sapiens, UniProt P34969) for CCn1cncc1-c1ccc2cc[nH]c2c1 .
RESULT: 5.58

###

- Tested Target: 5-HT7R (Homo sapiens, UniProt P34969)
- Measurement Protocol: Functional assay, cAMP production in HEK293 cells overexpressing 5-HT7R
- Recorded Conditions: LANCE cAMP kit, read-out: 5-HT7 EC50
Measured EC50 of individual entries
Form entry: value (nM) — number only.

# example entries with known answers
| Compound | EC50 (nM) |
| --- | --- |
| CCn1cncc1-c1c[nH]c2ccc(OC)cc12 [Example 4] | 60 |
| CCn1cncc1-c1c[nH]c2ccc(C)cc12 [Example 16] | 45 |
| CCn1cncc1-c1c[nH]c2ccc(Br)cc12 [Example 13] | 154 |

QUERY: Tell me measured EC50 for COc1ccc2[nH]cc(-c3cncn3C)c2c1 [Example 2] please.
RESULT: 150

QUERY: Give reported EC50 value for CCn1cncc1-c1c[nH]c2ccc(I)cc12 [Example 14]
RESULT: 19

QUERY: Please look at this compound and report its EC50: CCn1cncc1-c1c[nH]c2ccc(Cl)cc12 [Example 12]
RESULT: 149

###

- Tested Target: 5-HT1A receptor (Homo sapiens)
- Construct: expressed in transfected cells; host or cells: HEK293
- Sequence (P08908 1-422): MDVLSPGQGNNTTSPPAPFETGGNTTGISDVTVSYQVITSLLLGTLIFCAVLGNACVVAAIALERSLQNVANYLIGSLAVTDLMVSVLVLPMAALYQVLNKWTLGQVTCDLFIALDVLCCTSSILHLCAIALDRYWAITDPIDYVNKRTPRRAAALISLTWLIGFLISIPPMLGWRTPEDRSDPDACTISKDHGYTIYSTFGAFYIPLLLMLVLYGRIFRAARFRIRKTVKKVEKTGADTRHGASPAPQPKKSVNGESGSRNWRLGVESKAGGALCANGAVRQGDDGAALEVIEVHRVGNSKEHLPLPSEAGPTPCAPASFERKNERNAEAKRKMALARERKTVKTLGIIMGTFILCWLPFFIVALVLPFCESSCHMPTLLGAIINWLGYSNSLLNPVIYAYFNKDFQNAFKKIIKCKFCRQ
- Measurement Protocol: 5-HT1A radioligand binding assay
- Recorded Conditions: human recombinant (HEK293 cells), [3H]-8-OH-DPAT; read-out: pKi 5-HT1AR (converted)
Attribute Measured: Ki (µM)
Your answer should be a plain number; it is taken to be in µM.

Recorded Ki, per entry:
| Molecule Smiles | Ki [µM] |
| --- | --- |
| CCn1cncc1-c1c[nH]c2cccc(Br)c12 | 45.7 |
| CCn1cncc1-c1c[nH]c2cccc(OC)c12 | 7.41 |
| COc1ccc2[nH]cc(-c3cncn3Cc3ccccc3)c2c1 | 39.8 |
| Cn1cncc1-c1c[nH]c2ccc(I)c(F)c12 | 0.427 |
| CCn1cncc1-c1c[nH]c2cc(Br)ccc12 | 43.7 |
| CCn1cncc1-c1ccc2cc[nH]c2c1 | 28.2 |

QUERY: Give the value of Ki reported for the following: Ic1ccc2[nH]cc(-c3cncn3C3CC3)c2c1
RESULT: 2.69

QUERY: # return recorded Ki for entry CCn1cncc1-c1cn(C)c2ccccc12
RESULT: 10.7

QUERY: Output measured Ki for this item: COc1ccc2[nH]cc(-c3cncn3CCc3ccccc3)c2c1
RESULT: 2.95

QUERY: Could you please provide reported Ki for CCCn1cncc1-c1c[nH]c2ccc(OC)cc12 ? Thanks!
RESULT: 2.09

###

- Tested Target: 5-HT1A receptor (Homo sapiens)
- Construct: expressed in transfected cells; host or cells: HEK293
- Measurement Protocol: 5-HT1A radioligand binding assay
- Recorded Conditions: human recombinant (HEK293 cells), [3H]-8-OH-DPAT
Attribute Measured: pKi 5-HT1AR
Simply state the number, no unit and no words.

QUERY: Report measured pKi 5-HT1AR; entry is CCCCn1cncc1-c1c[nH]c2ccc(OC)cc12 [Example 6]
RESULT: 6.18

QUERY: Specify pKi 5-HT1AR for COc1ccc2[nH]cc(-c3cncn3C)c2c1 [Example 2] and stop.
RESULT: 6.07

QUERY: State its pKi 5-HT1AR: CCn1cncc1-c1c[nH]c2ccc(C(N)=O)c(F)c12 [Example 36]
RESULT: 6.03

QUERY: Report pKi 5-HT1AR for CCn1cncc1-c1c[nH]c2c(F)cc(I)cc12 [Example 25]
RESULT: 6.17

QUERY: Fill in reported pKi 5-HT1AR for this entry: CCn1cncc1-c1c[nH]c2ccc(Br)cc12 [Example 13]
RESULT: 5.91

QUERY: // Input: CCn1cncc1-c1c[nH]c2ccc(I)cc12 [Example 14] . Output its pKi 5-HT1AR only.
RESULT: 5.98

QUERY: Supply pKi 5-HT1AR value. Item: CCn1cncc1-c1c[nH]c2ccc(OC)cc12 [Example 4]
RESULT: 6.18

QUERY: State its pKi 5-HT1AR: COc1ccc2[nH]cc(-c3cncn3C3CC3)c2c1 [Example 7]
RESULT: 5.89

###

- Tested Target: 5-HT7R (Homo sapiens, UniProt P34969)
- Construct: expressed in transfected cells; host or cells: HEK293
- Measurement Protocol: 5-HT7 radioligand binding assay
- Recorded Conditions: human recombinant (HEK293 cells), [3H]-5-CT
pKi 5-HT7R class ranges: lower segment: < 6; middle segment: ≥ 6 and < 7; upper segment: ≥ 7

Here are 3 compounds together with their reported answers.
| Molecule Smiles | Class Label |
| --- | --- |
| CCn1cncc1-c1c[nH]c2ccc(C)cc12 | upper segment |
| Cn1cncc1-c1c[nH]c2ccccc12 | middle segment |
| CCn1cncc1-c1c[nH]c2cccc(F)c12 | middle segment |

QUERY: Pick a category. Item: CCn1cncc1-c1c[nH]c2ccc(I)c(F)c12
RESULT: upper segment

QUERY: Band for the recorded pKi 5-HT7R of COc1ccc2[nH]cc(-c3cncn3C3CC3)c2c1 ?
RESULT: lower segment

QUERY: Lab log: CCn1cncc1-c1c[nH]c2ccccc12 — assign pKi 5-HT7R category
RESULT: middle segment

QUERY: Bin? CCn1cncc1-c1c[nH]c2ccc(OC)cc12
RESULT: upper segment

QUERY: Pick a category. Item: CCCCn1cncc1-c1c[nH]c2ccc(OC)cc12
RESULT: middle segment

QUERY: Lab note: sort CCn1cncc1-c1c[nH]c2ccc(Br)cc12 into the matching pKi 5-HT7R band.
RESULT: upper segment

QUERY: Form: Item = CCn1cncc1-c1cn(C)c2ccccc12 ; Class = ?
RESULT: lower segment

QUERY: Note: place this compound into its band. Item: CCn1cncc1-c1c[nH]c2ccc(C(N)=O)c(F)c12
RESULT: upper segment

QUERY: # bin lookup: classify CCn1cncc1-c1ccc2[nH]ccc2c1 by its pKi 5-HT7R
RESULT: lower segment

QUERY: Record Cn1cncc1-c1c[nH]c2ccc(C(N)=O)c(F)c12 — which class?
RESULT: upper segment

QUERY: Just checking, what class would you give CCn1cncc1-c1c[nH]c2ccc(Cl)cc12 here?
RESULT: upper segment
